Taken from patent US9908897B2.

Listed here: items and their measured pIC50 DAT.
- Target entity: human dopamine transporter (DAT) (Homo sapiens (Human), UniProt Q01959)
- Sequence (Q01959 whole entry): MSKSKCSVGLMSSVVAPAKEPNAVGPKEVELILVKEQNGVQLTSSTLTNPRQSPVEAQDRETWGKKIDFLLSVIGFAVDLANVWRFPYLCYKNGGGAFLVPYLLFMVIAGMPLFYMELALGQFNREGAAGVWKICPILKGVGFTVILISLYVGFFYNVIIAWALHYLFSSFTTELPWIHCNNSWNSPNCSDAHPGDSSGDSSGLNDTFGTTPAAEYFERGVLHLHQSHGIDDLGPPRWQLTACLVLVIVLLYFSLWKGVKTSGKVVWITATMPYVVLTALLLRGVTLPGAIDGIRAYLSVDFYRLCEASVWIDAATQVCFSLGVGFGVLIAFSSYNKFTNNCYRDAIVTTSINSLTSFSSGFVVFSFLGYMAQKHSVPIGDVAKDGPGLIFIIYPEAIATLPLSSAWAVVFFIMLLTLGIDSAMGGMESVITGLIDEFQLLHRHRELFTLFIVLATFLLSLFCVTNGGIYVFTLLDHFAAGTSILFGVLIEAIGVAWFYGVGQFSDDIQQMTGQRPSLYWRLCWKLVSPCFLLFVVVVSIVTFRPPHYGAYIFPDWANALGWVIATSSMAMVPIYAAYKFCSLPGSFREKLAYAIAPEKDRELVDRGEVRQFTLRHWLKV
- Test protocol: Scintillation Proximity Assay (SPA) competition binding, human DAT
- Condition label: recombinant hDAT-CHO membranes, [3H]WIN-35,428
I only need the number, thanks.

| Molecule | pIC50 DAT |
| --- | --- |
| Cl.FC(F)(F)c1cc(Oc2ccccc2)nc(N2CCC3(CC2)CNCCO3)n1 [Example 55] | 8.19 |
| Cc1cnc(N2CCC3(CC2)CNCCO3)nc1Oc1cccc(F)c1.Cl [Example 54] | 6.96 |
| Fc1cccc(Oc2cc(C(F)(F)F)nc(N3CC4(CNCCO4)C3)n2)c1 [Example 102] | 8.00 |

Enquiry: Value wanted: pIC50 DAT (human dopamine transporter (DAT) (Homo sapiens (Human), UniProt Q01959)) of entry Cl.Fc1cccc(Oc2cc(F)c(F)cc2N2CCC3(CC2)CNCCO3)c1 [Example 2]
Return: 8.14

Enquiry: Value wanted: pIC50 DAT (human dopamine transporter (DAT) (Homo sapiens (Human), UniProt Q01959)) of entry Cl.N#Cc1cc(Oc2cccc(F)c2)nc(N2CCC3(CC2)CNCCO3)n1 [Example 62]
Return: 8.01

###

- Target entity: human norepinephrine transporter (NET) (Homo sapiens (Human))
- Test protocol: Scintillation Proximity Assay (SPA) competition binding, human NET
- Condition label: recombinant hNET-CHO membranes, [3H]nisoxetine
Property measured: pIC50 NET
I only need the number, thanks.

| Compound | pIC50 NET |
| --- | --- |
| Fc1cccc(Oc2cc(F)c(F)cc2N2CCC3(CCNCC3)CC2)c1 [Example 82] | 6.10 |
| Cc1ccc(Oc2ccccc2)cc1N1CCC2(CC1)CNCCO2 [Example 29] | 6.01 |

Enquiry: So what does the record say about pIC50 NET for Fc1cccc(Oc2cc(F)c(F)cc2N2CCCC3(CCNCC3)C2)c1 [Example 80] ?
Return: 5.84

###

Listed here: items and their measured pIC50 NET.
- Target entity: human norepinephrine transporter (NET) (Homo sapiens (Human), UniProt P23975)
- Sequence (P23975 whole entry): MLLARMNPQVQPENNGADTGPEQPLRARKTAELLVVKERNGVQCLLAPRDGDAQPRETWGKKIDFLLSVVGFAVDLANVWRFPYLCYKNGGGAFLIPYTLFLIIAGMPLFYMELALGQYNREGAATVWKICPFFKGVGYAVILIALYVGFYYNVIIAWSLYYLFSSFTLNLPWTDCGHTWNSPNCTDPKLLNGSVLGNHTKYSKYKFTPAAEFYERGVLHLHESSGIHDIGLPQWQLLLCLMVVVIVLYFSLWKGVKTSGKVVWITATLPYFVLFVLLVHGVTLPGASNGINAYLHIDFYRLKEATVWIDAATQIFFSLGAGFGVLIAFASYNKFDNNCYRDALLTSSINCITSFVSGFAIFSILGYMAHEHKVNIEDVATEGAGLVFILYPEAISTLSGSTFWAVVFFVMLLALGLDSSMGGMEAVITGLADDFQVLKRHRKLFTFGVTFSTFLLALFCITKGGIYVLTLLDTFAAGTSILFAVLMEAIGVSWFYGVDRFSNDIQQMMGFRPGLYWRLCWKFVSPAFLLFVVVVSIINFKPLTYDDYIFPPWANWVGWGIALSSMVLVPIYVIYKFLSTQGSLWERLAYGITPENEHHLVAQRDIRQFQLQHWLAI
- Test protocol: Scintillation Proximity Assay (SPA) competition binding, human NET
- Condition label: recombinant hNET-CHO membranes, [3H]nisoxetine

Here's what some known entries look like.
| Molecule | Target entity | Property measured | Result value |
| --- | --- | --- | --- |
| c1ccc(Oc2cccc(N3CCC4(CC3)CNCCO4)c2)cc1 | human norepinephrine transporter (NET) (Homo sapiens (Human), UniProt P23975) | pIC50 NET | 5.83 |
| Cl.Fc1cccc(Oc2cc(C(F)(F)F)nc(N3CCC4(CCNCC45OCCO5)C3)n2)c1 (stereo not drawn) | human norepinephrine transporter (NET) (Homo sapiens (Human), UniProt P23975) | pIC50 NET | 6.09 |
| Cl.FC(F)(F)c1cc(Oc2ccccc2)nc(N2CCC3(CC2)CNCCO3)n1 | human norepinephrine transporter (NET) (Homo sapiens (Human), UniProt P23975) | pIC50 NET | 6.12 |
| Cc1cc(Oc2cccc(C#N)c2)nc(N2CCC3(CC2)CNCCO3)n1.Cl | human norepinephrine transporter (NET) (Homo sapiens (Human), UniProt P23975) | pIC50 NET | 5.85 |
| Fc1cccc(Oc2cncc(N3CCC4(CC3)CNCCO4)c2)c1 | human norepinephrine transporter (NET) (Homo sapiens (Human), UniProt P23975) | pIC50 NET | 5.96 |

Lab note: next molecule to report on.
Enquiry: So what does the record say about pIC50 NET for `Cl.Fc1cccc(Oc2cc(C(F)(F)F)nc(N3CCOC4(CCNCC4)C3)n2)c1` ?
Return: 6.02
